We begin with a simple list: items and their reported solubility at 24 h.
# Assay summary: Solubility
# Format: physicochemical
# Recorded conditions: phosphate buffer pH 7, pH 7, aqueous buffer, thermodynamic from solid, pH = 7.0 buffer, 24 h room temperature, max. 500 μg/ml

Completed entries (count: 3):
compound="NC(=O)c1nc(Cn2nc(-c3ccc(Cl)cc3)n(C[C@H](OP(=O)(O)O)C(F)(F)F)c2=O)nn1-c1ccccc1C(F)(F)F [Example 10]" value="> 500 µg/mL"
compound="NC(=O)c1nc(Cn2nc(-c3ccc(Cl)cc3)n(C[C@H](OP(=O)(O)O)C(F)(F)F)c2=O)nn1-c1ncccc1C(F)(F)F [Example 1]" value="> 500 µg/mL"
compound="NC(=O)c1nc(Cn2nc(-c3ccc(Cl)cc3)n(C[C@H](OP(=O)(O)O)C(F)(F)F)c2=O)nn1-c1ncccc1Cl [Example 17]" value="> 500 µg/mL"

Consider now this further compound.
Need solubility at 24 h, item NC(=O)c1nc(Cn2nc(-c3ccc(Cl)cc3)n(C[C@H](O)C(F)(F)F)c2=O)nn1-c1ncccc1Cl [Example 8A] 2.8 µg/mL

Where do the numbers come from? From patent US11298367B2.
